- Test system: PC-12
- protocolText: Stimulation of nerve growth factor-mediated neurite outgrowth in rat PC12 cells incubated for 96 hrs in presence of 20 ng/ml NGF by phase contrast microscopy
- Assay type: functional, cell-based
- conditionSummary: Rattus norvegicus, PC-12, 96 h; read-out: EC50
EC50 for assorted molecules
Give just the number in µM; leave the unit off.

| smilesRepr | EC50 / µM |
| --- | --- |
| CC(=O)OC[C@]1(O)C[C@]23CC[C@@H]4C(C)(C)C(=O)CC[C@@]4(C)[C@@H]2CC[C@@H]1C3 | 11 |
| C=C[C@@]1(C)CC[C@H]2C(=CC[C@@H]3[C@]2(C)CCC[C@@]3(C)C(=O)O)[C@H]1O | 16 |

Please examine the following record next.
Lookup: Given the molecule `CC1(C)C(=O)CC[C@]2(C)[C@@H]1CC[C@]13C[C@@H](CC[C@H]12)[C@](O)(CO)C3` , what is its reported EC50?
Found: 19.7
